Please provide measured normalized growth for the entries that follow.
# testDetails: chemical genetic growth profiling, strain panel (AID 1159580);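 further: tested at 20 µM; growth read once vehicle control cultures reached saturation at 30 °C; 1 = growth at the plate median or of vehicle wells; lower values mean less growth of the strain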
# conditionSummary: S. cerevisiae deletion strains, growth OD, locus YNL233W, strain BNI4, stronger effect = lower value
Among all 5,500 compounds or so, about 2,000 (36%) were called active. About 18% were inconclusive and are not listed. This is one part of the list.
One number for each entry.

Consider the reported normalized growth for these molecules:
1. COc1cc2c3cc1Oc1cc(ccc1O)OC1c4c(cc(OC)c(O)c4Oc4ccc(cc4)CC3N(C)CC2)CCN1C (configuration not stated)    1.02
2. Nc1nccs1    0.96
3. Nc1ccc(S(=O)(=O)Nc2nccs2)cc1    0.99
4. OCC(S)CS (configuration not stated)    1

# per-item lookup of normalized growth; items listed below
1. CCOP(=S)(OCC)SCSCC
2. CN1CCc2cccc3c2C1Cc1ccc(O)c(O)c1-3 (configuration not stated)
3. COc1cc2c(cc1O)CC1c3c(cc(O)c(OC)c3-2)CCN1C (configuration not stated)

Result:
1. 1
2. 1.01
3. 0.992

###

# testDetails: chemical genetic growth profiling, strain panel (AID 1159580);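 further: tested at 20 µM; growth read once vehicle control cultures reached saturation at 30 °C; 1 = growth at the plate median or of vehicle wells; lower values mean less growth of the strain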
# conditionSummary: S. cerevisiae deletion strains, growth OD, locus YHR200W, strain rpn10, stronger effect = lower value
About 2,000 (36%) of roughly 5,500 compounds were called active. Roughly 18% stayed inconclusive and do not appear here. The list shows a part of the results.
Please provide measured normalized growth for the entries that follow.
Give bare numbers.

# per-item lookup of normalized growth; items listed below
1. CCOC(=O)C1=C[C@]2(CC)CCCN3CCc4c(n1c1ccccc41)[C@@H]32
2. COS(C)(=O)=O
3. CS(=O)(=O)OCCCCOS(C)(=O)=O
4. CC[C@]12CCCN3CCc4c(n(c5ccccc45)[C@](O)(C(=O)OC)C1)[C@@H]32
5. CC[C@@]1(C2O[C@@H](C3O[C@@](O)(CC)[C@H](C)C[C@@H]3C)C[C@@H]2C)CC[C@H]([C@]2(C)CCC3(C[C@H](O)[C@@H](C)[C@@H]([C@H](C)[C@@H](OC)[C@H](C)C(=O)O)O3)O2)O1 (stereo partly specified)
6. CN1CCc2cccc3c2C1Cc1ccc(O)c(O)c1-3 (stereo unspecified)

Result:
1: 0.979; 2: 1.02; 3: 0.948; 4: 0.971; 5: 0.986; 6: 0.997

# per-item lookup of normalized growth; items listed below
1. CC(=O)OCC(=O)[C@@]12OC(C)(C)O[C@@H]1CC1C3C[C@H](F)C4=CC(=O)C=C[C@]4(C)[C@@]3(F)[C@@H](O)C[C@@]12C (stereo partly specified)
2. CC(=O)C1=C(O)C2C3c4c[nH]c5cccc(c45)CC3C(C)(C)N2C1=O (stereo unspecified)
3. NCc1ccc(S(N)(=O)=O)cc1
4. COc1ccc2c(c1O)-c1c(OC)c(OC)cc3c1[C@H](C2)N(C)CC3
5. CCCNC(C)C(=O)Nc1ccccc1C (stereo unspecified)

Result:
1: 1.01; 2: 1.01; 3: 0.984; 4: 1.04; 5: 0.999

# per-item lookup of normalized growth; items listed below
1. O=C1CN(/N=C\c2ccc([N+](=O)[O-])o2)C(=O)N1
2. COc1cc2c3cc1Oc1cc(ccc1O)OC1c4c(cc(OC)c(O)c4Oc4ccc(cc4)CC3N(C)CC2)CCN1C (stereo unspecified)
3. CCn1cc(C(=O)O)c(=O)c2cc3c(cc21)OCO3

Result:
0.985
0.964
1

# per-item lookup of normalized growth; items listed below
1. CCn1cc(C(=O)O)c(=O)c2cnc(N3CCCC3)nc21
2. CCCSP(=O)(OCC)SCCC
3. CCCCC(CC)CN=C(N)NC(N)=NCCCCCCN=C(N)NC(N)=NCC(CC)CCCC (stereo unspecified)
4. CC[C@]12CCCN3CCc4c(n(c5ccccc45)C(=O)C1)[C@@H]32
5. CCn1cc(C(=O)O)c(=O)c2ccc(C)nc21

Result:
1: 0.998; 2: 0.982; 3: 0.0601; 4: 0.981; 5: 0.963

# per-item lookup of normalized growth; items listed below
1. CCn1cc(C(=O)O)c(=O)c2cnc(N3CCNCC3)nc21
2. CCOP(=S)(OCC)Oc1ccc2c(C)c(Cl)c(=O)oc2c1

Result:
0.988
0.984
